- target_desc: UniProtKB Q07869
- Sequence (Q07869 200-468): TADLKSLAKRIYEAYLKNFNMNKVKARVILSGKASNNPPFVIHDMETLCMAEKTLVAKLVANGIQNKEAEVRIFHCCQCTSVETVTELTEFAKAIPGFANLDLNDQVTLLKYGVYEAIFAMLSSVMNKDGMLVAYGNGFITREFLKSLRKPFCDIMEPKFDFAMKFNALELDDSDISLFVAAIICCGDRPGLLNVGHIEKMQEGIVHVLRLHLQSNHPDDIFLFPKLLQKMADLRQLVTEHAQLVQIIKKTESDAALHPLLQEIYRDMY
- measurement_protocol: TR-FRET SRC1 coactivator peptide recruitment assay, PPARα-LBD
measured_endpoint: EC50

• CC(C)(Oc1ccc(C(=O)c2ccc(Cl)cc2)cc1)C(=O)O = 9.87 µM

---

- target_desc: PPARδ-LBD (Homo sapiens)
- Sequence (Q03181 170-441): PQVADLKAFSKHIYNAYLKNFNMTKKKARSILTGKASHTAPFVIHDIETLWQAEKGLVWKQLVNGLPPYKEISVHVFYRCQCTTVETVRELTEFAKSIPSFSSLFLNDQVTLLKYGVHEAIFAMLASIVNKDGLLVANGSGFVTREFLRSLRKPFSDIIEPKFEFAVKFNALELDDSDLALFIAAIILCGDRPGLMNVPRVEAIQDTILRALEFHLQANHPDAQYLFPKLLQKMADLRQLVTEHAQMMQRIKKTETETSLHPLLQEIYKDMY
- measurement_protocol: TR-FRET SRC1 coactivator peptide recruitment assay, PPARδ-LBD
measured_endpoint: EC50 (µM)

• CC[C@@H](Oc1cccc(CN(CCCOc2ccc(OC)cc2)c2nc3ccccc3o2)c1)C(=O)O [pemafibrate] = 4.82
• CC(C)(Oc1ccc(CCNC(=O)c2ccc(Cl)cc2)cc1)C(=O)O [bezafibrate] = 31.8
